- target system: purified αvβ5 receptor (Homo sapiens, UniProt P06756+P18084)
- assay: Binding to integrin αvβ5 receptors ([125I]echistatin competition)
- particulars: inhibition of [125I]echistatin 0.15 nM binding to purified αvβ5 receptor; read-out: αvβ5 IC50 ± SD
recorded endpoint: pIC50
// field semantics: pIC50 = negative decimal log of concentration (mol/L)

Consider the worked cases shown below.
N=C(N)NCCC[C@@H]1NC(=O)[C@H](Cc2ccc(CNC(=O)CCC(=O)O)cc2)NC(=O)[C@@H](Cc2ccccc2)NC(=O)[C@H](CC(=O)O)NC(=O)CNC1=O [ST2649, c[Arg-Gly-Asp-D-Phe-Amp-(CH2)2COOH]]; 8.29
N=C(N)NCCC[C@@H]1NC(=O)CN(Cc2ccc(CN)cc2)C(=O)[C@@H](Cc2ccccc2)NC(=O)[C@H](CC(=O)O)NC(=O)CNC1=O [ST2701, c(Arg-Gly-Asp-D-Phe-N-Amb-Gly)]; 8.54
CC(C)[C@H]1C(=O)N[C@@H](CCCNC(=N)N)C(=O)NCC(=O)N[C@@H](CC(=O)O)C(=O)N[C@H](Cc2ccccc2)C(=O)N1CCCCCC(=O)O [ST2956]; 7.47
C=CCOC(=O)CCCCCN1C(=O)[C@@H](Cc2ccccc2)NC(=O)[C@H](CC(=O)O)NC(=O)CNC(=O)[C@H](CCCNC(=N)N)NC(=O)[C@@H]1C(C)C [ST2957]; 7.42
COCCOCCOCCOCC(=O)NCc1ccc(C[C@@H]2NC(=O)[C@@H](Cc3ccccc3)NC(=O)[C@H](CC(=O)O)NC(=O)CNC(=O)[C@H](CCCNC(=N)N)NC2=O)cc1 [ST2597]; 8.68

Inquiry: Would you mind telling me what pIC50 value was observed for N=C(N)NCCC[C@@H]1NC(=O)[C@H](Cc2ccc(CN)cc2)NC(=O)[C@@H](Cc2ccccc2)NC(=O)[C@H](CC(=O)O)NC(=O)CNC1=O [ST2581, c(Arg-Gly-Asp-D-Phe-Amp)] ?
Reply text: 8.47

Inquiry: Would you mind doing CN1C(=O)[C@@H](Cc2ccccc2)NC(=O)[C@H](CC(=O)O)NC(=O)CNC(=O)[C@H](CCCNC(=N)N)NC(=O)[C@@H]1Cc1ccc(CN)cc1 [ST2700, c(Arg-Gly-Asp-D-Phe-N-Me-Amp)] as well?
Reply text: 9.00

---

- System: PC3 prostate carcinoma cells
- Assay type: cell-based, human
- particulars: read-out: PC3 IC50, μM 3 h of treatm., cell adhesion to vitronectin, PC3 low levels of both integrins
// reported IC50 per item
Write down the value, and be sure its unit follows.

N=C(N)NCCC[C@@H]1NC(=O)[C@H](Cc2ccc(CNC(=O)COCCOCCOCC(=O)O)cc2)NC(=O)[C@@H](Cc2ccccc2)NC(=O)[C@H](CC(=O)O)NC(=O)CNC1=O; 18.8 µM

Inquiry: Would you mind telling me what IC50 value was observed for N=C(N)NCCC[C@@H]1NC(=O)[C@H](Cc2ccc(CNC(=O)CCC(=O)O)cc2)NC(=O)[C@@H](Cc2ccccc2)NC(=O)[C@H](CC(=O)O)NC(=O)CNC1=O [ST2649, c[Arg-Gly-Asp-D-Phe-Amp-(CH2)2COOH]] ?
Reply text: 33.7 µM

---

- target system: purified αvβ3 receptor (Homo sapiens, UniProt P05106+P06756)
- assay: Binding to integrin αvβ3 receptors ([125I]echistatin competition)
- particulars: inhibition of [125I]echistatin 0.05 nM binding to purified αvβ3 receptor; read-out: αvβ3 IC50 ± SD
The label is satisfied for IC50 below 40 nM and not satisfied for IC50 equal to or exceeding 40 nM.

These recorded examples may help you get a feel for the data.
N=C(N)NCCC[C@@H]1NC(=O)[C@H](Cc2ccc(CN)cc2)NC(=O)[C@@H](Cc2ccccc2)NC(=O)[C@H](CC(=O)O)NC(=O)CNC1=O [ST2581, c(Arg-Gly-Asp-D-Phe-Amp)]; satisfied
N=C(N)NCCC[C@@H]1NC(=O)[C@H](Cc2ccc(CNC(=O)CCC(=O)O)cc2)NC(=O)[C@@H](Cc2ccccc2)NC(=O)[C@H](CC(=O)O)NC(=O)CNC1=O [ST2649, c[Arg-Gly-Asp-D-Phe-Amp-(CH2)2COOH]]; satisfied
COCCOCCOCCOCC(=O)NCc1ccc(C[C@@H]2NC(=O)[C@@H](Cc3ccccc3)NC(=O)[C@H](CC(=O)O)NC(=O)CNC(=O)[C@H](CCCNC(=N)N)NC2=O)cc1 [ST2597]; satisfied
N=C(N)NCCC[C@@H]1NC(=O)CN(Cc2ccc(CN)cc2)C(=O)[C@@H](Cc2ccccc2)NC(=O)[C@H](CC(=O)O)NC(=O)CNC1=O [ST2701, c(Arg-Gly-Asp-D-Phe-N-Amb-Gly)]; satisfied
CC(C)[C@H]1C(=O)N[C@@H](CCCNC(=N)N)C(=O)NCC(=O)N[C@@H](CC(=O)O)C(=O)N[C@H](Cc2ccccc2)C(=O)N1CCCCCC(=O)O [ST2956]; satisfied

Attention now turns to another entry.
Inquiry: Problem: For the compound C=CCOC(=O)CCCCCN1C(=O)[C@@H](Cc2ccccc2)NC(=O)[C@H](CC(=O)O)NC(=O)CNC(=O)[C@H](CCCNC(=N)N)NC(=O)[C@@H]1C(C)C [ST2957] , is IC50 under 40 nM?
Reply text: not satisfied
